Data origin: PubChem BioAssay AID1996

# Reported conditions: buffer; pH 7.4; 200.0 µM
Examples of compounds with documented solubility kinetic follow.

Smiles notation: Cc1ccc(F)cc1N=Cc1c(O)c2ccccc2oc1=O
solubility kinetic: < 0.6 µg/mL
--
Smiles notation: CCOC(=O)CNC(=O)CSc1nccn1Cc1ccco1
solubility kinetic: > 48.5 µg/mL
--
Smiles notation: COc1ccccc1N(CCC#N)C(=S)Nc1ccc(S(=O)(=O)N2CCOCC2)cc1
solubility kinetic: > 69.1 µg/mL

Problem: Give its solubility kinetic value. Item: Cc1ccc(NC(=O)c2ccsc2)cc1NS(C)(=O)=O
Solution: > 46.6 µg/mL

Problem: Give its solubility kinetic value. Item: COCN(C#N)c1nc(N(C)C)nc(N(C)C)n1
Solution: > 37.7 µg/mL

Problem: Give its solubility kinetic value. Item: CN(Cc1ccc(F)cc1)C(=O)CCc1nnc(-c2ccccc2)o1
Solution: > 50.9 µg/mL

* * *

# Reported conditions: buffer; pH 7.4; 200.0 µM
Measured parameter: solubility kinetic

Problem: Give its solubility kinetic value. Item: CCN(CC)C(=O)c1cccc2nc3ccccc3nc12
Solution: > 41.9 µg/mL

Problem: Give its solubility kinetic value. Item: CCC(=O)OCC(=O)Nc1ncc(C(F)(F)F)cc1Cl
Solution: > 46.6 µg/mL

Problem: Give its solubility kinetic value. Item: O=C(c1c[nH]c2ccccc12)N1CCN(Cc2ccccc2)CC1
Solution: > 47.9 µg/mL

Problem: Give its solubility kinetic value. Item: CCCn1c2ccccc2c2cnn(CC(=O)NCCOC)c(=O)c21
Solution: > 51.4 µg/mL

Problem: Give its solubility kinetic value. Item: CCN(CC(=O)Nc1cc(Cl)ccc1C)C(=O)C1CC1
Solution: > 44.2 µg/mL

Problem: Give its solubility kinetic value. Item: Cc1ccc(NC(=O)NCc2ccccn2)cc1Cl
Solution: > 41.4 µg/mL

Problem: Give its solubility kinetic value. Item: O=C(NC1CCCCC1)C1CCN(c2ncccn2)CC1
Solution: > 43.3 µg/mL

Problem: Give its solubility kinetic value. Item: CCCCn1c(=O)c(C(=O)Nc2ccccc2F)c(O)c2ccccc21
Solution: < 0.4 µg/mL

Problem: Give its solubility kinetic value. Item: CC(C)NC(=O)CCCn1cc([N+](=O)[O-])cn1
Solution: > 36 µg/mL

Problem: Give its solubility kinetic value. Item: CCOc1ccccc1NC(=O)NCc1ccccn1
Solution: > 40.7 µg/mL

Problem: Give its solubility kinetic value. Item: CCc1ccc(N(CC)C(=O)c2cn(C)c(=O)c3ccccc23)cc1
Solution: > 50.2 µg/mL

Problem: Give its solubility kinetic value. Item: Cc1cccc(NC(=O)C2CC(=O)N(Cc3ccccc3)C2)n1 (configuration not stated)
Solution: > 46.4 µg/mL

* * *

# Reported conditions: buffer; pH 7.4; 200.0 µM
Measured parameter: solubility kinetic

Compound: O=CNCCCc1nc2ccccc2n1CCc1ccccc1
solubility kinetic: > 46.1 µg/mL
//
Compound: O=C(O)C1C2CCC(CC2)C1C(=O)N1CCN(Cc2ccc(F)cc2)CC1 (stereo not given)
solubility kinetic: > 56.2 µg/mL
//
Compound: COP(=O)(c1ccc(N(C)C)cc1)C(O)c1ccccc1 (stereo not given)
solubility kinetic: > 45.8 µg/mL
//
Compound: CCOC(=O)C1=C(COC(=O)c2cccnc2SC)NC(=O)NC1C (stereo not given)
solubility kinetic: > 54.8 µg/mL

Problem: Give its solubility kinetic value. Item: NC(=O)CSc1nnc(-c2ccco2)n1-c1ccccc1
Solution: > 45.1 µg/mL
